These data points were gathered from patent US7118895B2.

The entries below come with measured Decomposition efficiency of daidzin family in soymilk values attached.
Tested on: Crude diglycosidase
test-method-notes: Examination of pH in the conversion into isoflavone aglycons by diglycosidase using soybean materials
Type: biochemical, Penicillium multicolor IAM7153
condition-notes: pH11.6; heat treatment of enzyme: no; reaction time 3 h
Write it as a number; the unit % goes unstated.

[ask] # query: Decomposition efficiency of daidzin family in soymilk of entry O=c1c(-c2ccc(O)cc2)coc2cc(O)ccc12 [daidzein]
[reply] 49.6

We now examine a further molecule.
[ask] # query: Decomposition efficiency of daidzin family in soymilk of entry O=C(O)CC(=O)OC[C@H]1O[C@@H](Oc2ccc3c(=O)c(-c4ccc(O)cc4)coc3c2)[C@H](O)[C@@H](O)[C@@H]1O [malonyldaidzin, 6″-O-malonyldaidzin]
[reply] 50.4
